# credit: PubChem BioAssay AID1963870

- System: 292921-168-R-J2-PDC KRAS tumor spheroid viability;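 also: drug exposure lasted seven days after spheroids formed for three days; percent of DMSO vehicle control viability which is 100%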
- Assay name: Anticancer human tumor 292921-168-R-J2-PDC patient-derived pancreatic carcinoma cell line growth inhibition [KRAS2]
- Stated conditions: second compound 0.1 µM; first compound 0.00316 µM; hits give low values; spheroids with HUVEC and MSC
Readings of viability, T/C for the listed molecules

# Molecule, viability, T/C
data = [
    ("CCN1CCN(Cc2ccc(Nc3ncc(F)c(-c4cc(F)c5nc(C)n(C(C)C)c5c4)n3)nc2)CC1 + COc1cc2nc(C)nc(NC(C)c3cc(N)cc(C(F)(F)F)c3)c2cc1OC1CCOC1", "74.7%"),
    ("Cn1ncnc1[C@H]1c2n[nH]c(=O)c3cc(F)cc(c23)N[C@@H]1c1ccc(F)cc1 + COc1cc2nc(C)nc(NC(C)c3cc(N)cc(C(F)(F)F)c3)c2cc1OC1CCOC1", "85.8%"),
    ("CC(=O)Nc1cccc(-n2c(=O)n(C3CC3)c(=O)c3c(Nc4ccc(I)cc4F)n(C)c(=O)c(C)c32)c1 + C=CC(=O)N1CCN(c2nc(=O)n(-c3c(C)ccnc3C(C)C)c3nc(-c4c(O)cccc4F)c(F)cc23)C(C)C1", "18.7%"),
    ("Cn1ncnc1[C@H]1c2n[nH]c(=O)c3cc(F)cc(c23)N[C@@H]1c1ccc(F)cc1 + C=CC(=O)N1CCN(c2nc(OCC3CCCN3C)nc3c2CCN(c2cccc4cccc(C)c24)C3)CC1CC#N", "91.7%"),
]
